system: HT29 colon; experiment: NCI tumour cell line growth inhibition, 48 h
Listing of entries alongside the reported TGI.

Observe how each entry below is paired with its result.
Would you kindly share the measured TGI for CSc1cnc2ccccc2c1SC1CN(Cc2ccccc2)c2ccccc2C1=O (centres undefined) ? > 100 µM

Now the same for COc1ccc(-c2nn(-c3ccc(NC(=O)Nc4cc(C(F)(F)F)cc(C(F)(F)F)c4)cc3)cc2-c2ccncc2)cc1Cl > 100 µM

Now the same for COc1cc(OC)c(C2c3cc4c(cc3OC(N3CCCC3)C2C)OCO4)c(OC)c1 (centres undefined) 28.7 µM

---
Would you kindly share the measured TGI for Cc1ccc(S(=O)(=O)C(C#N)c2nc3ccccc3nc2-n2ccnc2)cc1 (centres undefined) ? > 100 µM

Now the same for [N-]=[N+]=NC1=C(c2ccccn2)C(=O)c2cccc3cccc1c23 > 100 µM

====

test system: A549 NSCLC; test: NCI tumour cell line growth inhibition, 48 h
Listing of entries alongside the reported TGI.

Would you kindly share the measured TGI for C[N+]12CCCCC1C(CN1C(=O)Cc3c4ccccc4c(c4ccccc34)CC1=O)CCC2 (stereo not drawn) ? > 100 µM

---
Would you kindly share the measured TGI for C/C(N=NC(=S)N(C)C)=C1\C=CC=CN1O ? > 100 µM

Now the same for COc1ccc(C2OC(c3ccncc3)=NN2C)cc1OC (stereo not drawn) > 100 µM

====

test system: A549 NSCLC; test: NCI tumour cell line growth inhibition, 48 h
Listing of entries alongside the reported TGI.

Observe how each entry below is paired with its result.
Any idea what TGI came out for COc1ccc2c(cnc3c4cc(OC)c(OC)cc4ccc23)c1 on A549 NSCLC? > 100 µM

Now the same for CCC(=O)ONC(=O)Cn1ccc([N+](=O)[O-])n1 > 100 µM

Now the same for O=NN(CCCl)C(=O)NC1CCC(O)CC1 (configuration not stated) > 100 µM

Now the same for Nc1ccc(C(=O)N2CCC[C@H]2CO)c(N)c1 > 100 µM

Now the same for CCOc1cc(C(C)(C)C)ccc1C1=N[C@@](C)(c2ccc(Cl)cc2)[C@@](C)(c2ccc(Cl)cc2)N1C(=O)N1CCN(CCCS(C)(=O)=O)CC1 19.4 µM

---
Any idea what TGI came out for COc1cccc2c(=O)c3c(sc12)c(N1CCNCC1)nc1ccccc13 on A549 NSCLC? 4.26 µM

Now the same for C#C[C@]1(O)CC[C@H]2[C@@H]3CCC4=C/C(=N/OC(=O)c5cccc6c(=O)c7ccccc7[nH]c56)CC[C@@H]4[C@H]3CC[C@@]21C > 100 µM

Now the same for COc1cc2c3c(c1OC)C1(C=CC(=O)C=C1)C[C@H]3N(C)CC2 > 100 µM

Now the same for Cn1c2ccccc2c(=NNc2cccc(C(=O)O)c2)c2ccccc21 27.3 µM

Now the same for CN(C)CCN1C(=O)c2ccc3c4c(ccc(c24)C1=O)C(=O)N(CCN=C=S)C3=O 0.252 µM

====

system: OVCAR-5 ovarian; test: NCI tumour cell line growth inhibition, 48 h
measurement label: TGI (µM)
The reply should be a number in µM, with the unit left off.

Would you kindly share the measured TGI for O=C1c2cccnc2-c2nccc3c2c1nc1cc(Br)ccc13 ? 0.527

---
Would you kindly share the measured TGI for CN(C)c1cc[c]([Sn]([c]2ccc(N(C)C)cc2)([c]2ccc(N(C)C)cc2)[c]2ccc(N(C)C)cc2)cc1 ? 33.2

Now the same for CCN1CCC(O)(/C=C/c2ccc(C)cc2C)C(C(=O)/C=C/c2ccc(C)cc2C)C1 (stereo unspecified) 14.7

Now the same for CC(C)(Cl)C(Br)CCC(=CCCl)CBr (mixture of isomers) 21.4

Now the same for Cn1c(COC(=O)Nc2ccccc2)c(COC(=O)Nc2ccccc2)c2ccc3cc(Cl)c(Cl)cc3c21 24.1
